Every entry's value here was drawn from patent US20250042994A1.

# EXPERIMENTAL_SYSTEM: T1, Human CD19-his protein (human, UniProt P15391 20-291)
# T1 construct: bought protein; also called recombinant human CD19-His; CD19 full-length protein; not shown: His tag
# T1 sequence (looked up): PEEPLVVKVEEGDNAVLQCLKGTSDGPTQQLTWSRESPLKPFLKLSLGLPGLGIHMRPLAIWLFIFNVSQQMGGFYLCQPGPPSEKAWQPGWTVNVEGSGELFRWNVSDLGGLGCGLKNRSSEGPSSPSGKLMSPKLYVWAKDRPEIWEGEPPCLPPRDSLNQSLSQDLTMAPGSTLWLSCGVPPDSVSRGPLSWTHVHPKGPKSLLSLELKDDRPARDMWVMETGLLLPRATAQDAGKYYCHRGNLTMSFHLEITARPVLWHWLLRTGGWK
# PROTOCOL_SUMMARY: SPR Biacore, Ab captured on Protein A, CD19-His analyte
MEASURED_PROPERTY: log10 of koff (log10 of the value in s⁻¹)
Please be aware that the numbers have been log10-transformed from koff in s⁻¹.

Solved entries (count: 5):
BINDER	log10 of koff
F4.145.9 (antibody, human IgG1, V domains shown, human-murine chimeric antibody, human IgG1 constant) VH: EVQLVESGGGLVKPGGSLKLSCAAAGFAFSSYDMSWVRQIPEKRLEWVAYISAGGGNTYFLDTVKGRFTISRDHAKNTLSLQMSSLKSEDTAMYFCVRHGDYYRYFYAMDYWGQGSSVTVSS VL: DIVMTQSHKFMSTSVGDRVSITCKASQDVGTAVAWSQQKPGQSPKLLIYWASTRHTGVPDRFTGSGSGTDFTLTISNVQSEDLADYFCQQFVTYPYTFGGGTKLEIK	-3.23
F4.35.5 (antibody, human IgG1, V domains shown, human-murine chimeric antibody, human IgG1 constant) VH: EIQLQQSGPELVKPGASVKVSCKASGYAFTSYNMYWVKQSHGKSLEWIGYIDPYNGDTRYNQKFKGKATLTVDKSSSTAYMHLNSLTSEDSAVYYCTRSGTGRDYWGQGTTLTVSS VL: QIVLTQSPAIMSASPGEKVTMTCSASSSISYMFWFQQKPGSSPRLLIYDTSSLASGVPVRFSGSGSGTSYTLTISRMEAEDAATYYCQQWSNYPYTFGGGTKLEMK	-2.45
F5.11.2 (antibody, human IgG1, V domains shown, human-murine chimeric antibody, human IgG1 constant) VH: EVQLVESGGDLVKPGGSLKLSCAASGFTFSSYGMSWVRQTPDKRLEWVATISHGGSYTHYPDSVKGRFTISRDNAKNTLYLQMNSLKSEDTAMYYCVRLPITTVEAPYFFDYWGQGTTLTVSS VL: DIQMTQTTSSLSASLGDRVTISCRASQDIRNYLNWYQQKPDGTVKLLIYYTSILHSGVPSRFSGSGSGTDYSLTINNLEQEDVATYFCQQGNTLYTFGGGTEVELR	-4.21
F6.5.20 (antibody, human IgG1, V domains shown, human-murine chimeric antibody, human IgG1 constant) VH: QVQLQQPGAELVKPGASVKLSCKASGYTFTSYWMQWVKQRPGQGLEWIGEIDPSDSYTNYNQKFKGKASLTVDTSSSTAYMQLSSLTSEDSAVYYCARWGLLRNYYVMDYWGQGTSVTVSS VL: EIVLTQSPTTMAASPGEKITITCSASSSISSNYLHWYQQKPGFSPKLLIYRTSNLASGVPARFSGSGSGTSYSLTIGTMEAEDVATYYCQQGSSIPRMLTFGAGTKLELK	-2.73
F3.81.2 (antibody, human IgG1, V domains shown, human-murine chimeric antibody, human IgG1 constant) VH: QVQLQQPGAELVMPGASVKLSCKASAYTFTNYWMHWVKQRPGHGLEWIGEIDPSDSYTDYNQNFKAKATLTVDKSSSTAYMQLSSLTSEDSAVYYCARLMGRYFDVWGTGTTVTVSS VL: DIVMTQSHKFMSTSVGDRVSITCKASQDVSAAVAWYQQKPGQSPKLLINSASYRYTGVPDRFTGSGSGTDFTFTISSVQAEDLAVYYCQQHYSTPLTFGAGTKLELR	-3.98

Query: Name the reported log10 of koff value associated with the binder F5.10.6 (antibody, human IgG1, V domains shown, human-murine chimeric antibody, human IgG1 constant) VH: DVQLQESGPGLVKPSQSLSLTCSVTDYSITSGYYWTWIRQFPGNKLEWMGYISYDGSTNYNPSLKNRFSITRDTSKNQFFLKLNSVIIEDTATYYCARDRMSTTWYFDVWGTGTTVTVSS VL: DIVLTQSPASLAVSLGQRATISCRASESVDNYGISFMHWYQQKPGQPPKLLIYRASKTESGIPARFSGSGSRTDFTLTINPVETDDVATYYCQQSNKYPRTFGGGTKVEIK
Reply: -3.82

Query: Okay, and F4.96.6 (antibody, human IgG1, V domains shown, human-murine chimeric antibody, human IgG1 constant) VH: EIQLQQSGPELVKPGASVKVSCKASGYAFSAYNIYWVKQSHGKSLEWIGYIDPYNSGTTYNQKFRGKATLTVDKSSNTAYMHLSSLTSEDSAVYYCTRDGDAMDYWGQGTSVTVSS VL: EILLTQSPAIIAASPGEKVTITCSASSGVIYMNWYQQKPGSSPKIWIYDVSTLASGVPARFSGSGSGTSFSFTINSMEAEDVATYYCQQRSSYPYTFGGGTKLEIK ?
Reply: -3.04

Query: And for F4.78.1 (antibody, human IgG1, V domains shown, human-murine chimeric antibody, human IgG1 constant) VH: QVQIQQSGAELARPGASVKLSCKASGYTFTNYWMQWIKQRPGQGLEWIGAIYPGDGDTRYTQKFKGKATLTADKSSSTAYMQLSSLASEDSAVYYCAREEVWSPYGMDYWGQGTSVTVSS VL: QIVLTQSPAIMSASPGEKVTITCSASSSVSYMGWFQQKPGTSPKLWIYSTSNLASGVPARFSGSGSGTSYSLTISRMEAEDAATYYCQQRSIYPLTFGAGTKLELK ?
Reply: -3.77

Query: Now the same for F4.21.2 (antibody, human IgG1, V domains shown, human-murine chimeric antibody, human IgG1 constant) VH: QVQLKQSGPGLVQPSQSLSITCTVSGFSLSTYGVHWVRQSPGRGLEWLGVIWIGGTTDYNAAFISRLTISKDNSRGQVFFKMDSLQANDTAIYYCARKGYYKYDGGYYYAMDYWGQGTSVTVSS VL: DIQMTQSSSYLSVSLGGRVTITCKASDHINNWLAWYQQKPGNAPWLLISGATSLETGVPSRFSGSGSGKDYTLSISSLQTEDVATYYCQQYWSTPLTFGAGTKLELK
Reply: -3.78

Query: Try F3.114.12 (antibody, human IgG1, V domains shown, human-murine chimeric antibody, human IgG1 constant) VH: DVQLQESGPGLVKPSQSLSLTCSVTGYSITSGYDWNWIRQFPGNKLEWMGYISYDGKNNYNPSLRNRISITRDTSKNQFFLKLNSVTTEDTATYYCARRDLRGYFDVWGTGTTVTVSS VL: DIVLTQSPATLSVTPGDRVSLSCRASQSISNYLHWYQQKSHESPRLLIKYASLSISGIPSRFSGSGSGTDFTLSINSVETEDFGVYFCQQSNSWPLTFGAGTKLELK next.
Reply: -3.33
